Data provenance is paper PMC10967822.

Tested on: human red blood cells
TEST_PROTOCOL: Hemolytic assay
Type: cell-based
CONDITION_SET: 10% hemolytic activity, mean n = 2
Method: Human whole blood was washed three times with three volumes of 0.9% NaCl and then resuspended in the same solution to a concentration of 0.5 × 10^8 cells/mL, as determined by the manual cell count in a Neubauer hemocytometer. The washed cells were then added to the 384-well compound-containing plates for a final volume of 50 μL. […] Hemolysis was determined by measuring the supernatant absorbance at […] (OD405). The absorbance was measured using a Tecan M1000 Pro monochromator plate reader. […]

COMPOUND: Cc1cccc2c(C(=O)NCCCNCCCCNCCCNC(=O)c3c[nH]c4c(C)cccc34)c[nH]c12 [Compound 18a]
Hemolysis HC10: >43 µM
--
COMPOUND: O=C(NCCCNCCCCCCCNCCCNC(=O)c1c[nH]c2ccccc12)c1c[nH]c2ccccc12.O=C(O)C(F)(F)F.O=C(O)C(F)(F)F [Compound 12c]
Hemolysis HC10: >42 µM
--
COMPOUND: O=C(NCCCNCCCCCCCCNCCCNC(=O)c1c[nH]c2ccccc12)c1c[nH]c2ccccc12.O=C(O)C(F)(F)F.O=C(O)C(F)(F)F [Compound 12d]
Hemolysis HC10: >41 µM
--
COMPOUND: Cc1ccc2[nH]cc(C(=O)NCCCNCCCCCCCCCCNCCCNC(=O)c3c[nH]c4ccc(C)cc34)c2c1 [Compound 15e]
Hemolysis HC10: >39 µM
--
COMPOUND: COc1cccc2c(C(=O)NCCCNCCCCCCCNCCCNC(=O)c3c[nH]c4c(OC)cccc34)c[nH]c12.O=C(O)C(F)(F)F.O=C(O)C(F)(F)F [Compound 17c]
Hemolysis HC10: >39 µM
--
COMPOUND: Cc1ccc2[nH]cc(C(=O)NCCCNCCCCCCCNCCCNC(=O)c3c[nH]c4ccc(C)cc34)c2c1 [Compound 15c]
Hemolysis HC10: >41 µM

----------
System: E. coli ATCC 25922
TEST_PROTOCOL: Erythromycin potentiation against E. coli
Assay type: cell-based, Escherichia coli
CONDITION_SET: erythromycin at 2 µg/mL (2.7 µM), mean n = 3
METRIC_NAME: Erythro/Ec: concentration required to restore erythromycin activity (combination MIC) (µM)

COMPOUND: COc1ccc2[nH]cc(C(=O)NCCCNCCCCCCCCCCCCNCCCNC(=O)c3c[nH]c4ccc(OC)cc34)c2c1.O=C(O)C(F)(F)F.O=C(O)C(F)(F)F [Compound 14f]
SCALE_UNIT: µM
DATA_VALUE: 14.1
//
COMPOUND: O=C(NCCCNCCCCCCCCCCCCNCCCNC(=O)c1c[nH]c2ccc(Br)cc12)c1c[nH]c2ccc(Br)cc12.O=C(O)C(F)(F)F.O=C(O)C(F)(F)F [Compound 13f]
SCALE_UNIT: µM
DATA_VALUE: 25.3
//
COMPOUND: O=C(NCCCNCCCCNCCCNC(=O)c1c[nH]c2ccc(Br)cc12)c1c[nH]c2ccc(Br)cc12 [Compound 3]
SCALE_UNIT: µM
DATA_VALUE: 100
//
COMPOUND: COc1ccc2[nH]cc(C(=O)NCCCNCCCCCCCCCCNCCCNC(=O)c3c[nH]c4ccc(OC)cc34)c2c1.O=C(O)C(F)(F)F.O=C(O)C(F)(F)F [Compound 14e]
SCALE_UNIT: µM
DATA_VALUE: 116
//
COMPOUND: O=C(NCCCNCCCCCCCCCCNCCCNC(=O)c1c[nH]c2c(F)cccc12)c1c[nH]c2c(F)cccc12 [Compound 16e]
SCALE_UNIT: µM
DATA_VALUE: 239
//
COMPOUND: COc1ccc2[nH]cc(C(=O)NCCCNCCCCCCCCNCCCNC(=O)c3c[nH]c4ccc(OC)cc34)c2c1 [Compound 14d]
SCALE_UNIT: µM
DATA_VALUE: 240
